Kindly supply the reported growth values for the records listed here.
system: SK-MEL-5 melanoma; test: NCI-60 one-dose screen, 48 h (100 = growth as untreated, 0 = no growth, -100 = all killed); settings: 10 µM unless noted
The panel holds about 83,000 compounds, 20% with a hit somewhere; the sample as a whole holds those more often. The source made the active and inactive calls. How the source made its calls: active means growth percent below 10; inactive means the rest.

Below: 5 compounds and their reported growth.
Cc1cc(N(CCCl)CCCl)ccc1C=Nc1ccc(-c2csc(-c3ccccc3)n2)cc1 | 80.8% (inactive)
C[C@]12CCc3sc(Nc4ccc(F)cc4)nc3C1=CC[C@@H]1[C@@H]2CC[C@]2(C)C(=O)CC[C@@H]12 | 71.3% (inactive)
C=CC[PH+](c1ccccc1)c1ccccc1.C=CC[PH+](c1ccccc1)c1ccccc1.[Pt+2].[S-]c1nc2ccccc2[nH]1.[S-]c1nc2ccccc2[nH]1 | -94.9% (active)
COc1cc(C2C3=C(CCCC3=O)N(CCO)c3cc4c(cc32)CCC4)cc(OC)c1OC (stereo unspecified) | 87.1% (inactive)
COc1ccc(O)c2c(=O)c3c(OC)cc4c(c3oc12)[C@@H]1C=CO[C@@H]1O4 | 25.9% (inactive)

Reported growth for CC[C@H](C)[C@H]1O[C@]2(C=C[C@@H]1C)C[C@@H]1C[C@@H](C/C=C(\C)[C@@H](O[C@H]3C[C@H](OC)[C@@H](O[C@H]4C[C@H](OC)[C@@H](NC)[C@H](C)O4)[C@H](C)O3)[C@@H](C)/C=C/C=C3\CO[C@@H]4[C@H](O)C(C)=C[C@@H](C(=O)O1)[C@]34O)O2 : what is it?
-95.5% (active)

----------
System: A549/ATCC NSCLC
Assay: NCI-60 one-dose screen, 48 h (100 = growth as untreated, 0 = no growth, -100 = all killed)
Conditions: 10 µM unless noted
Description: Growth inhibition of the A549/ATCC human Non-Small Cell Lung tumor cell line is measured as a screen for anti-cancer activity. Cells are grown in 96 well plates and exposed to the test compound for 48 hours. Compounds are tested at a single concentration, which is 10^-5 M for most compounds. The reported endpoint is percent growth (GI% or GIPRCNT), where numbers from 0 - 100% represent growth inhibition, and numbers from -100% - 0 represent cell death. […]
Compounds without any hit were thinned out: in the full panel of roughly 83,000, 20% have a hit.
Kindly supply the reported growth values for the records listed here.
Give bare numbers, in %.

Below: 2 compounds and their reported growth.
S=P(SP(=S)(c1ccccc1)c1ccccc1)(c1ccccc1)c1ccccc1 | 106
CC[C@@H](C)C(=O)O[C@H]1[C@H](O)[C@H]2[C@@H](CN3C[C@@H](C)CC[C@H]3[C@@]2(C)O)[C@@H]2C[C@]34O[C@]5(O)[C@@H](OC(=O)[C@@](C)(O)CC)CC[C@@]3(C)[C@@H]5[C@@H](OC(C)=O)[C@@H](OC(C)=O)[C@H]4[C@@]21O | 70.5

Quick request: growth for each listed item, please.
1. CN1[C@@H](CC(=O)c2ccccc2)CCC[C@H]1CC(=O)c1ccccc1
2. O=C/C=C/c1ccco1
3. O=C(O)c1cc([N+](=O)[O-])cc([N+](=O)[O-])c1
4. CC[C@H](C)[C@H](NC(=O)CN(C)C)C(=O)N(C)[C@H](C[C@@H](OC(C)=O)c1nc(C(=O)NC23C4C5C2C2C3C4C52C(=O)OC)cs1)C(C)C (stereo partly drawn)
5. C[Se]/C=C1/C(=O)N(c2c(Cl)cccc2Cl)c2ccccc21
6. Cc1nc2ccccc2c(=O)n1-c1ccccc1F

[93.8, 85.6, 79.6, 21.3, 7.85, 76.2]

----------
tested on: IGROV1 ovarian; assay: NCI-60 one-dose screen, 48 h (100 = growth as untreated, 0 = no growth, -100 = all killed); settings: 10 µM unless noted
This is part of a sample that, as a whole, favours compounds with a hit. Of some 83,000 tested, about 20% had one in any assay. Activity calls are given as the source filed them. Rule for the calls: active = growth percent below 10; inactive = the rest.
endpoint.name: growth

Below: 3 compounds and their reported growth.
N#CC(C#N)=Cc1cccc(F)c1 | 112% (inactive)
COc1ccc(N)cc1OC | 107% (inactive)
COCC1OC2OC3C(COC)OC(OC4C(COC)OC(OC5C(COC)OC(OC6C(COC)OC(OC7C(COC)OC(OC8C(COC)OC(OC1C(O)C2O)C(O)C8O)C(O)C7O)C(O)C6O)C(O)C5O)C(O)C4O)C(O)C3O (stereo not drawn) (tested in a mixture with another compound) | 184% (inactive)

Quick request: growth for each listed item, please.
1. CCCCCCCCCCCCCCCCCC1OCC(COC(=O)O[C@@H](C(=O)O[C@H]2C[C@@]3(O)[C@@H](OC(=O)c4ccccc4)[C@@H]4[C@]5(OC(C)=O)CO[C@@H]5C[C@H](O)[C@@]4(C)C(=O)[C@H](OC(C)=O)C(=C2C)C3(C)C)[C@@H](NC(=O)c2ccccc2)c2ccccc2)O1 (stereo partly drawn)
2. c1ccc2c(c1)sc1ccccc12
3. CCN1C(=O)CC(=O)N(CC)C1=S
4. CC(C)COC(=O)Cc1ccccc1
5. CCC1(CCSC#N)C(=O)NC(=O)NC1=O

1. 47.6% (inactive)
2. 98.2% (inactive)
3. 98.5% (inactive)
4. 109% (inactive)
5. 104% (inactive)

----------
Kindly supply the reported growth values for the records listed here.
Test system: CAKI-1 renal
Experiment: NCI-60 one-dose screen, 48 h (100 = growth as untreated, 0 = no growth, -100 = all killed)
Settings: 10 µM unless noted
Method: Growth inhibition of the CAKI-1 human tumor cell line is measured as a screen for anti-cancer activity. Cells are grown in 96 well plates and exposed to the test compound for 48 hours. Compounds are tested at a single concentration, which is 10^-5 M for most compounds. The reported endpoint is percent growth (GI% or GIPRCNT), where numbers from 0 - 100% represent growth inhibition, and numbers from -100% - 0 represent cell death. For example, a value of 40 represents 60% growth inhibition. […]
Compounds without any hit were thinned out: in the full panel of roughly 83,000, 20% have a hit.
Give bare numbers, in %.

Below: 6 compounds and their reported growth.
O=C(NC1=NCC[Se]1)c1ccccc1O | 50.8
C[C@]12CCC3[C@@H](C[C@@H]4SC(Nc5ccccc5)=N[C@@]45CC(=O)CC[C@]35C)[C@@H]1CCC2=O (some centres undefined) | -45.6
COc1cc(-c2ccc(N)c(OC)c2)ccc1N | 92.5
O=C(O)CNCP(=O)(O)O | 100
[N-]=[N+]=CC(=O)CCC(=O)C=[N+]=[N-] | 97.4
C/C(=C\c1ccn(-c2ccc(N)cc2F)n1)[C@@H]1C[C@@H]2O[C@]2(C)CCC[C@H](C)[C@H](O)[C@@H](C)C(=O)C(C)(C)[C@@H](O)CC(=O)O1 | 41.4

Quick request: growth for each listed item, please.
1. CC[C@H](C)[C@H](NC(=O)[C@H]1CCCCN1C)C(=O)N(C)[C@H](C(=O)NC12CC(C(=O)N[C@@H](Cc3ccccc3)C[C@H](C)C(=O)OC)(C1)C2)C(C)C
2. COc1ccc(N)cc1OC
3. CC[PH+](CC)CC.O=COC1OC([S-])C(OC=O)C(OC=O)C1OC=O.[Au+] (centres undefined)

95.9
99
-92.8

----------
tested on: NCI/ADR-RES ovarian; assay: NCI-60 one-dose screen, 48 h (100 = growth as untreated, 0 = no growth, -100 = all killed); conditions: 10 µM unless noted
This is part of a sample that, as a whole, favours compounds with a hit. Of some 83,000 tested, about 20% had one in any assay.
endpoint.name: growth (%)
Answers are plain numbers, in %.

Below: 8 compounds and their reported growth.
O=C1c2ccccc2C(=O)N1N1CC1c1ccccc1 (stereo not given) | 104
O=S(=O)(F)c1cccc(Cl)c1C[P+](c1ccccc1)(c1ccccc1)c1ccccc1 | 109
Cc1ccc(N2CCN(CCC#N)CC2)cc1 | 98.8
CC(=O)Cc1ccc2c(c1)OCO2 | 103
C[C@]12CCC3[C@@H](C[C@@H]4SC(Nc5ccccc5)=N[C@@]45CC(=O)CC[C@]35C)[C@@H]1CCC2=O (stereo not given in full) | 9.86
O=[N+]([O-])c1ccc(CI)cc1 | 70.9
CC[C@H](C)[C@H](NC(=O)[C@H]1CCCCN1C)C(=O)N(C)[C@H](CCc1nc(C(=O)N[C@@H](Cc2ccccc2)C[C@H](C)C(=O)O)cs1)C(C)C | 73.3
O=[N+]([O-])c1ccc(P(=O)(O)O)cc1 | 103

Quick request: growth for each listed item, please.
1. C[C@]12CC[C@H]3[C@@H](CC=C4c5nc(-c6ccc(Br)cc6)sc5CC[C@@]43C)[C@@H]1CC[C@@H]2O
2. O=C(NC(Cl)=C(Cl)Cl)P(=O)(c1ccccc1)c1ccccc1

1. 99.5
2. 107

The values you see were collected from PubChem BioAssay (NCI).
